// values below are reported Vif-A3G-Luc Activity (% of RLUs compared to DMSO treated control)
Tested on: A3G-Luc/Vif
Test: A3G-Luc/Vif luciferase screen in 293T cells stably co-expressing A3G-Luc and HIV-1 Vif
Assay type: cell-based, human
Details: 10 μM, 48 hrs, DMSO = 100%
State just the number; it will be interpreted in %.

Past entries and their recorded results:
# smiles-str, system-under-test, endpoint-value
records = [
    ("COCC(=O)Nc1cc(C(=O)Nc2ccc(Cl)c(Cl)c2)ccc1OC", "A3G-Luc/Vif", 170),
    ("COC(=O)Nc1cc(C(=O)Nc2ccc(Cl)c(Cl)c2)ccc1OC", "A3G-Luc/Vif", 119),
]

What measured Vif-A3G-Luc Activity (% of RLUs compared to DMSO treated control) goes with `COc1ccc(C(=O)Nc2ccc(Cl)c(Cl)c2)cc1NC(=O)C1CC1` ? 138

Attribution: patent US9688637B2
